Target: IFI16HinAB (Homo sapiens, UniProt Q16666-2 159-729)
Sequence (Q16666 other isoform, or with tags, fused parts or gaps): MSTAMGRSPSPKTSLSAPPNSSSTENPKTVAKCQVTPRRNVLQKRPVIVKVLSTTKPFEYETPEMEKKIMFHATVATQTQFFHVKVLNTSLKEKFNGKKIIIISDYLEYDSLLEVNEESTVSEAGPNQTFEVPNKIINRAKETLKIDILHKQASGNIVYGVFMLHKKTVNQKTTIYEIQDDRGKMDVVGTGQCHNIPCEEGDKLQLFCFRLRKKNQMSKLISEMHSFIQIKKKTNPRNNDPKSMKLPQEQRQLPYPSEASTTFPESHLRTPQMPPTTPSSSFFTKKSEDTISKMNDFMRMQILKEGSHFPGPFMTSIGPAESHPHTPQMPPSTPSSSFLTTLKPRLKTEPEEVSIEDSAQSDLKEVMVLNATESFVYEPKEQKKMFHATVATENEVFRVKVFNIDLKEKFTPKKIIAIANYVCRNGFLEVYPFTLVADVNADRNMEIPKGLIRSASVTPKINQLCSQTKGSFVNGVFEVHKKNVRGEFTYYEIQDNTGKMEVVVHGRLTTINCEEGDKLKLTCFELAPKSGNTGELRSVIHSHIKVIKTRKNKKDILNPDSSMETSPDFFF
Assay: EMSA; apparent KD >=1 uM; low salt; 160 mM KCl; 60 mM KCl for IFI16HinAB; FAM probe 3-6 nM (FA) or 20 nM (EMSA); binding buffer pH and temperature not in the material
Settings: protein: recombinant; label: FAM
pKd: −log10 of the molar value.
ENDPOINT: pKd

[[record]]
binder = "24-bp dsRNA (dsRNA) RNA 1: UAAGACACGAUGCGAUAAAAUCUG RNA 2: CAGAUUUUAUCGCAUCGUGUCUUA"
endpoint = "pKd"
obs_value = "< 6.00"

[[record]]
binder = "TTTCTTTCTTTCTTTCTTTCTTTC (ssDNA) [24-base ssDNA_T]"
endpoint = "pKd"
obs_value = "< 6.00"


Moving on to another binder below.
What does the data say about its pKd? Entry: AAAGAAAGAAAGAAAGAAAGAAAG (ssDNA) [24-base ssDNA_A]
< 6.00
